Origin of the recorded values: patent US20230017597A1

The following molecules are listed with their measured AUC(0-t) values.
measurement-description: Pharmacokinetic evaluation in rats after intravenous or gavage administration
Type: in vivo, SD rats
study-conditions: SD, rat, plasma, po, gavage, 5 mg/kg
Please report the result as a number followed by the unit.

CCn1c(=O)c2c(nc(/C=C/c3ccc(OC4CCN(C(C)=O)CC4)cc3)n2C)n(CC)c1=O : 36900 ng·h/mL

Here's the next entry for you.
Task item: I am curious: what AUC(0-t) value has been reported for "CCn1c(=O)c2c(nc(/C=C/c3ccc(OC4CCN(S(C)(=O)=O)CC4)cc3)n2C)n(CC)c1=O" ?
Reply: 11900 ng·h/mL

###

measurement-description: Pharmacokinetic evaluation in rats after intravenous or gavage administration
Type: in vivo, SD rats
study-conditions: SD, rat, plasma, intravenous injection, 1 mg/kg
reported-metric: AUC(0-inf) (ng·h/mL)
Write down the numeric answer in ng·h/mL and omit the unit.

CCn1c(=O)c2c(nc(/C=C/c3ccc(OC4CCN(C(C)=O)CC4)cc3)n2C)n(CC)c1=O : 6290

Task item: Please report the recorded AUC(0-inf) for "CCn1c(=O)c2c(nc(/C=C/c3ccc(OC4CCN(S(C)(=O)=O)CC4)cc3)n2C)n(CC)c1=O" .
Reply: 1830

###

measurement-description: Pharmacokinetic evaluation in beagles after intravenous or gavage administration
Assay type: in vivo
study-conditions: beagle, dog, plasma, po, gavage, 2.5 mg/kg
reported-metric: MRT inf (h)
The reply should contain only the number, in h.

CCn1c(=O)c2c(nc(/C=C/c3ccc(OC4CCN(S(C)(=O)=O)CC4)cc3)n2C)n(CC)c1=O : 18.1

With those in mind, consider the next compound.
Task item: Field request: MRT inf | item: "CCn1c(=O)c2c(nc(/C=C/c3ccc(OC4CCN(C(C)=O)CC4)cc3)n2C)n(CC)c1=O"
Reply: 12.5

###

measurement-description: Pharmacokinetic evaluation in beagles after intravenous or gavage administration
Format: in vivo
study-conditions: beagle, dog, plasma, intravenous injection, 0.5 mg/kg
Protocol: The test animals are mice and/or dogs. The LC-MS/MS system for analysis includes the Agilent 1200 series vacuum degasser, a quaternary pump, an orifice plate sampler, a thermostatted column oven, and an API4000Qtrap triple quadrupole mass spectrometer with an electrospray ionization source (ESI). A waters xbridge C18 UPLC, 2.1×50 mm, […] column was used for analysis and 0.5 μL of sample was injected. […]
Listing of entries alongside the reported AUC(0-t).
Field note: include the unit after the figure.

Task item: What AUC(0-t) value was documented for this molecule, "CCn1c(=O)c2c(nc(/C=C/c3ccc(OC4CCN(C(C)=O)CC4)cc3)n2C)n(CC)c1=O" ?
Reply: 5830 ng·h/mL

Task item: # query: AUC(0-t) of entry "CCn1c(=O)c2c(nc(/C=C/c3ccc(OC4CCN(S(C)(=O)=O)CC4)cc3)n2C)n(CC)c1=O"
Reply: 4990 ng·h/mL

###

measurement-description: Pharmacokinetic evaluation in rats after intravenous or gavage administration
Format: in vivo, SD rats
study-conditions: SD, rat, plasma, po, gavage, 5 mg/kg
Item-by-item account of Tmax
Express the result in h but write the number alone.

CCn1c(=O)c2c(nc(/C=C/c3ccc(OC4CCN(C(C)=O)CC4)cc3)n2C)n(CC)c1=O [Example 6] : 1.5

Next up:
Task item: // Tmax lookup, key: CCn1c(=O)c2c(nc(/C=C/c3ccc(OC4CCN(S(C)(=O)=O)CC4)cc3)n2C)n(CC)c1=O [Example 8]
Reply: 1.67

###

measurement-description: Pharmacokinetic evaluation in rats after intravenous or gavage administration
Assay type: in vivo, SD rats
study-conditions: SD, rat, plasma, intravenous injection, 1 mg/kg
reported-metric: half-life (h)
All answers are understood in h, so give the number only.

CCn1c(=O)c2c(nc(/C=C/c3ccc(OC4CCN(C(C)=O)CC4)cc3)n2C)n(CC)c1=O [Example 6] : 3.82

Next molecule, please.
Task item: I have this molecule here, CCn1c(=O)c2c(nc(/C=C/c3ccc(OC4CCN(S(C)(=O)=O)CC4)cc3)n2C)n(CC)c1=O [Example 8] , and I need its recorded half-life.
Reply: 4.64

###

measurement-description: Pharmacokinetic evaluation in rats after intravenous or gavage administration
Assay type: in vivo, SD rats
study-conditions: SD, rat, plasma, intravenous injection, 1 mg/kg
MRT inf for assorted compounds
Value expressed in h; do not type the unit.

Task item: For the compound CCn1c(=O)c2c(nc(/C=C/c3ccc(OC4CCN(S(C)(=O)=O)CC4)cc3)n2C)n(CC)c1=O [Example 8] , what MRT inf is on record?
Reply: 3.1

Task item: # lookup: MRT inf of CCn1c(=O)c2c(nc(/C=C/c3ccc(OC4CCN(C(C)=O)CC4)cc3)n2C)n(CC)c1=O [Example 6]
Reply: 4.37

###

compounds and their reported MRT inf
measurement-description: Pharmacokinetic evaluation in beagles after intravenous or gavage administration
Type: in vivo
study-conditions: beagle, dog, plasma, intravenous injection, 0.5 mg/kg
Provide a numeric answer, followed by its unit.

CCn1c(=O)c2c(nc(/C=C/c3ccc(OC4CCN(C(C)=O)CC4)cc3)n2C)n(CC)c1=O [Example 6] : 7.37 h

Task item: So what's the measured MRT inf for this one? CCn1c(=O)c2c(nc(/C=C/c3ccc(OC4CCN(S(C)(=O)=O)CC4)cc3)n2C)n(CC)c1=O [Example 8]
Reply: 14.4 h

###

Entries and their clearance
measurement-description: Pharmacokinetic evaluation in rats after intravenous or gavage administration
Format: in vivo, SD rats
study-conditions: SD, rat, plasma, intravenous injection, 1 mg/kg
Procedure: The LC-MS/MS system for analysis includes the Agilent 1200 series vacuum degasser, a quaternary pump, an orifice plate sampler, a thermostatted column oven, and an API4000Qtrap triple quadrupole mass spectrometer with an electrospray ionization source (ESI). Waters ACQUITY UPLC CSH C18, 2.1×50 mm, 1.7 μm column was used for analysis, and 0.8 μL of sample was injected. […]
# output: numeric value plus its unit

CCn1c(=O)c2c(nc(/C=C/c3ccc(OC4CCN(C(C)=O)CC4)cc3)n2C)n(CC)c1=O [Example 6] : 2.65 mL/min/kg

Task item: What value of clearance has been recorded for this entry: CCn1c(=O)c2c(nc(/C=C/c3ccc(OC4CCN(S(C)(=O)=O)CC4)cc3)n2C)n(CC)c1=O [Example 8]
Reply: 9.1 mL/min/kg
